pIC50: −log10 of the molar value.
As a worked illustration, we turn to pIC50 data collected for UniProt:O76083.
Sequence (O76083 whole entry): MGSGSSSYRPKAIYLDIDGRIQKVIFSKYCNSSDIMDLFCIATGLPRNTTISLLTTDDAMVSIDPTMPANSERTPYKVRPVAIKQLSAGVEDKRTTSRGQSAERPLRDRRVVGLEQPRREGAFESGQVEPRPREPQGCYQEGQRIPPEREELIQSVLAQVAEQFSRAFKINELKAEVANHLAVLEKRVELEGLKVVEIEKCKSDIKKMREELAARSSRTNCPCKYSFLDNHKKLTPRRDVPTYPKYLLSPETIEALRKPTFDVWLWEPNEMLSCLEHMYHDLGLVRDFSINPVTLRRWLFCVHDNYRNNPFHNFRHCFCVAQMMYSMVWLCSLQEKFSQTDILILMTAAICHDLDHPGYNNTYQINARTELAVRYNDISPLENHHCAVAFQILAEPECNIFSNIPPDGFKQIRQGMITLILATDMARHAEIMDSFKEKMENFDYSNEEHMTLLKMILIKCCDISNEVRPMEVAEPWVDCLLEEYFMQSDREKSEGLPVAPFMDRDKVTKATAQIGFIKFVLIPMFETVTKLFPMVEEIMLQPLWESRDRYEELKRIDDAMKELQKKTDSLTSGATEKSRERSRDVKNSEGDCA

Input: # return pIC50 of `COCCc1ncc(-c2c(C)nc3c(N4CCOCC4)nccn23)cn1` (system: UniProt:O76083)
Output: < 5.00

Then there is this compound:
Input: Lab note: record pIC50 of `Cc1nc2c(N3CCOCC3)nccn2c1-c1ccc(C2CCOCC2)nc1` tested on UniProt:O76083.
Output: < 4.00
